Data provenance is patent US5070210A.

system: Maize weevil [Sitophilus Zeamais (Motschulsky)]; assay: Maize weevil insecticidal test; format: in vivo; details: adult weevils, percent in solution; 48 hours
For each record, write down the corresponding LC50, MW.
Form entry: value (%) — number only.

Return LC50, MW for the following molecule: CC(C)C(=Nc1ccc(C(F)(F)F)cc1)OCc1ccc(F)c(Oc2ccccc2)c1 [Compound 337]
0.0053

Give the reported LC50, MW for this molecule. CC(C)C(=Nc1ccc2c(c1)OCO2)OCc1cccc(Oc2ccc(Cl)cc2)n1 [Compound 466]
0.01

Please report the measured LC50, MW for CC(C)C(=Nc1ccc(F)c(Cl)c1)OCc1cccc(Oc2ccc(F)cc2)n1 [Compound 461]
0.0075

// Input: CC(C)C(=Nc1ccc2c(c1)OCO2)OCc1cccc(Oc2ccc(F)cc2)c1 [Compound 176] . Output its LC50, MW only.
0.009
